Below, each entry is listed alongside its reported Mean fluorescence intensity.
Biological target: T1, monkey LAG-3 on cells (HEK293-cLAG-3 stable cell line) (monkey, UniProt P18627 24-525 (human entry))
T1 construct: Full-length monkey (Chinese monkey) LAG-3 gene expressed on HEK293 cells
T1 chain: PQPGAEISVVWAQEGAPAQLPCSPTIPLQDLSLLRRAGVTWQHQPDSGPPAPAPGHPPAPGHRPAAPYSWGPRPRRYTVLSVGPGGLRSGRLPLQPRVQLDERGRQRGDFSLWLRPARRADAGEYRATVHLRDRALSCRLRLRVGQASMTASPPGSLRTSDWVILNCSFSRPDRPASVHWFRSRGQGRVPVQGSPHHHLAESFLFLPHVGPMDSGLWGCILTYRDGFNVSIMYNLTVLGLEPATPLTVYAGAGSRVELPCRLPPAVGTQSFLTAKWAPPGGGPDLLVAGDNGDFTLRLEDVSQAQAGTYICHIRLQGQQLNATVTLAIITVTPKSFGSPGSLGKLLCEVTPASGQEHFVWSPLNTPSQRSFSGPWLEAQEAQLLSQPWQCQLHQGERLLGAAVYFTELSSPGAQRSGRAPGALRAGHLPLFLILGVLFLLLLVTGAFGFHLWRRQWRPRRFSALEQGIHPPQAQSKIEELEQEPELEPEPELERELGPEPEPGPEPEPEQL
Assay: FACS, HEK293-cLAG-3, antibody 8.000 nM
Metric name: Mean fluorescence intensity

[[record]]
binder = "105F1E10 mouse-human chimeric antibody (antibody, V domains shown, also called mAb009-105F1E10) VH: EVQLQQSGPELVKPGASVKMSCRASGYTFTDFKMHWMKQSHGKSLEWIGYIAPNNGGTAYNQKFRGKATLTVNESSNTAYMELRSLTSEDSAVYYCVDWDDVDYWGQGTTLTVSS VL: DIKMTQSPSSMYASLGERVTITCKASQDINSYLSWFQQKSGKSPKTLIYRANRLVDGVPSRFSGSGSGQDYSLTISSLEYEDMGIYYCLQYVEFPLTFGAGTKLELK"
recorded_number = 37.9

[[record]]
binder = "409B11E12 mouse-human chimeric antibody (antibody, V domains shown, also called mAb104-409B11E12) VH: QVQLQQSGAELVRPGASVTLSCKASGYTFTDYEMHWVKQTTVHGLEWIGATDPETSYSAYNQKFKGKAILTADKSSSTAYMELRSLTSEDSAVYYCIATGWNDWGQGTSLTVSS VL: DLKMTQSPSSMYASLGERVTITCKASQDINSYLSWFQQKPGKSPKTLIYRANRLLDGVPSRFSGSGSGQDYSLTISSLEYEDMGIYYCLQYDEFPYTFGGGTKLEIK"
recorded_number = 73.1

[[record]]
binder = "405B8H3 mouse-human chimeric antibody (antibody, V domains shown, also called mAb103-405B8H3) VH: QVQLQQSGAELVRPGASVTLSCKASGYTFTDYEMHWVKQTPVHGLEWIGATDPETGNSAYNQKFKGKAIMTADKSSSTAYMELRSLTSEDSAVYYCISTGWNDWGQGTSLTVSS VL: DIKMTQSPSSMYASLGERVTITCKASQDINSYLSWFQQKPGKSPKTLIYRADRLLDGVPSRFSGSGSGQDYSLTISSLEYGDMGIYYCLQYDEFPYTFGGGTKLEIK"
recorded_number = 69.3

[[record]]
binder = "409D4E10 mouse-human chimeric antibody (antibody, V domains shown, also called mAb112-409D4E10) VH: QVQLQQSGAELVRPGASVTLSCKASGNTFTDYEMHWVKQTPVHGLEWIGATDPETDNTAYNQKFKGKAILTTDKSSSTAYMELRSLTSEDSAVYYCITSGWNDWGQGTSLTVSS VL: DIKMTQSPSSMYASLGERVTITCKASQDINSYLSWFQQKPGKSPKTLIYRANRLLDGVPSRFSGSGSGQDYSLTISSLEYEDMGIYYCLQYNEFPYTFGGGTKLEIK"
recorded_number = 61.5

[[record]]
binder = "556F6B8 mouse-human chimeric antibody (antibody, V domains shown, also called mAb123-556F6B8; 556F8B8) VH: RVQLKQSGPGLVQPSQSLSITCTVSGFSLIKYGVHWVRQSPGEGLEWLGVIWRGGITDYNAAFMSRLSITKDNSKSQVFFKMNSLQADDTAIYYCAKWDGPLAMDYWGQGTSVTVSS VL: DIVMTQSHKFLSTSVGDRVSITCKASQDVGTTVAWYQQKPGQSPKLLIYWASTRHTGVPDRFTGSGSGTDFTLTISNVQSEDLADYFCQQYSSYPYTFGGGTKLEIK"
recorded_number = 42.5


Values from patent US20210155689A1
